Values were extracted from patent US20170355774A1.

Each record here notes measured Kd.
- target-system: T1, hGITR.mFc (human)
- T1 construct: soluble dimeric construct with mouse Fc; also called dimeric human GITR
- T1 chain: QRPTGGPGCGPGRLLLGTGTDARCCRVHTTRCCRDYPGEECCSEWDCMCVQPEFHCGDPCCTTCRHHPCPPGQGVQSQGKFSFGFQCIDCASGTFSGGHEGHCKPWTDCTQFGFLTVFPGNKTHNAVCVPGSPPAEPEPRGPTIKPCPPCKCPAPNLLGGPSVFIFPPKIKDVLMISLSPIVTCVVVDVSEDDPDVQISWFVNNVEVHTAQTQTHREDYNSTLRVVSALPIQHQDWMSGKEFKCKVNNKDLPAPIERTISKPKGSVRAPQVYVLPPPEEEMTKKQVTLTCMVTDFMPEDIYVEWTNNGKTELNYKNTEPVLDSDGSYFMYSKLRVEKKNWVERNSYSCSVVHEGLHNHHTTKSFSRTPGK
- protocol-notes: SPR 37C, mAb capture
Unit nM implied. Number only.

Example binders with recorded Kd:
H4H14516P (antibody, human IgG4, V domains shown, human IgG4 (H4H)) VH: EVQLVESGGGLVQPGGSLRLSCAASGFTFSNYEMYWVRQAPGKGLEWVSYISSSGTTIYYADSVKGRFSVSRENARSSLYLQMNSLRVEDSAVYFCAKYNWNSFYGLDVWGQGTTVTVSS VL: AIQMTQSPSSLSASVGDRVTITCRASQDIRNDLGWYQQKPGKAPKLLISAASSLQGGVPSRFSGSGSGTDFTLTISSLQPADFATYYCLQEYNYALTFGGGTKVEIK    1.08
H4H14469P (antibody, human IgG4, V domains shown, human IgG4 (H4H)) VH: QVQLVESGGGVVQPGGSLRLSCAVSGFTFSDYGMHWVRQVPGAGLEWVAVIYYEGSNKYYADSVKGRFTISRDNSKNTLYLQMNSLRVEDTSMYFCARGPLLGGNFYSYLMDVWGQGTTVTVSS VL: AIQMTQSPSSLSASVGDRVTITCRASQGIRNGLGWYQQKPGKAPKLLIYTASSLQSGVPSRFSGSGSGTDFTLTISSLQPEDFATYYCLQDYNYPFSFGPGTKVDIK    0.335

Provide measured Kd value, entry: H4H14470P (antibody, human IgG4, V domains shown, human IgG4 (H4H)) VH: QVQLVESGGGVVQPGRSLRLSCAASGFTVRNYGMHWVRQAPGKGLEWVAVIWYDGSNKYYADSVKGRFTISRDNSKNTLFLQMNSLRAEDTAVYYCARGGELVRGDYYYGMDVWGQGTTVTVSS VL: DIQMTQSPSSLSASVGDRVTITCRASQGIRNDLGWYQQKPGKAPKRLIYGASSLQSGVPSRFSGSGSGTEFTLTISSLQPEDFATYYCLQHNSYPYTFGQGTKLEIK
1.15
